The measured values listed here are drawn from ChEMBL document CHEMBL5131424.

Consider the following compounds and their measured GI50 at 24 h readings.
# TEST SUMMARY: Cytotoxicity against human HL-60 cells assessed as reduction in cell viability measured after 24 hrs by resazurin dye based assay
# Assay type: toxicity
# MEASUREMENT PARAMETERS: HL-60 cells
Field: numeric (µM). Do not append units.

Before answering, review these 3 worked examples.
CCCCNC(=O)OC[C@]1(O)O[C@H]([C@H]2C[C@H](C)[C@H]([C@]3(CO)CC[C@H]([C@]4(C)CC[C@]5(C[C@H](O)[C@@H](C)[C@@H]([C@@H](C)[C@@H](OC)[C@H](C)C(=O)O)O5)O4)O3)O2)[C@@H](C)C[C@H]1C
11.4
CCCCCCCCCC(=O)OC[C@]1(O)O[C@H]([C@H]2C[C@H](C)[C@H]([C@]3(CO)CC[C@H]([C@]4(C)CC[C@]5(C[C@H](O)[C@@H](C)[C@@H]([C@@H](C)[C@@H](OC)[C@H](C)C(=O)O)O5)O4)O3)O2)[C@@H](C)C[C@H]1C
10
CCNC(=O)OC[C@]1(O)O[C@H]([C@H]2C[C@H](C)[C@H]([C@]3(CO)CC[C@H]([C@]4(C)CC[C@]5(C[C@H](O)[C@@H](C)[C@@H]([C@@H](C)[C@@H](OC)[C@H](C)C(=O)O)O5)O4)O3)O2)[C@@H](C)C[C@H]1C
85.8

Qu. Value lookup for GI50 at 24 h; key = `CO[C@H]([C@H](C)[C@H]1O[C@@]2(CC[C@@](C)([C@H]3CC[C@@](CO)([C@@H]4O[C@@H]([C@H]5O[C@@](O)(COC(C)=O)[C@H](C)C[C@@H]5C)C[C@@H]4C)O3)O2)C[C@H](O)[C@H]1C)[C@H](C)C(=O)O`
Ans. 5.51

###

# Test system: Staphylococcus epidermidis
# TEST SUMMARY: Antibacterial activity against Staphylococcus epidermidis 829/19
# Type: functional
QUANTITY MEASURED: MIC (µg/mL)
API: value field is a number in µg/mL; no unit string.

CCCNC(=O)OC[C@]1(O)O[C@H]([C@H]2C[C@H](C)[C@H]([C@]3(CO)CC[C@H]([C@]4(C)CC[C@]5(C[C@H](O)[C@@H](C)[C@@H]([C@@H](C)[C@@H](OC)[C@H](C)C(=O)O)O5)O4)O3)O2)[C@@H](C)C[C@H]1C
4

Qu. Look up MIC: `CO[C@H]([C@H](C)[C@H]1O[C@@]2(CC[C@@](C)([C@H]3CC[C@@](CO)([C@@H]4O[C@@H]([C@H]5O[C@@](O)(COC(=O)NCc6ccccc6)[C@H](C)C[C@@H]5C)C[C@@H]4C)O3)O2)C[C@H](O)[C@H]1C)[C@H](C)C(=O)O`
Ans. 2

###

Each record here notes measured MIC.
# System: Escherichia coli
# TEST SUMMARY: Antibacterial activity against Escherichia coli NCTC 10538
# Type: functional

# count of solved cases: 4
CCCNC(=O)OC[C@]1(O)O[C@H]([C@H]2C[C@H](C)[C@H]([C@]3(CO)CC[C@H]([C@]4(C)CC[C@]5(C[C@H](O)[C@@H](C)[C@@H]([C@@H](C)[C@@H](OC)[C@H](C)C(=O)O)O5)O4)O3)O2)[C@@H](C)C[C@H]1C
> 256 µg/mL
CO[C@H]([C@H](C)[C@H]1O[C@@]2(CC[C@@](C)([C@H]3CC[C@@](CO)([C@@H]4O[C@@H]([C@H]5O[C@@](O)(COC(=O)c6ccccc6)[C@H](C)C[C@@H]5C)C[C@@H]4C)O3)O2)C[C@H](O)[C@H]1C)[C@H](C)C(=O)O
> 256 µg/mL
CO[C@H]([C@H](C)[C@H]1O[C@@]2(CC[C@@](C)([C@H]3CC[C@@](CO)([C@@H]4O[C@@H]([C@H]5O[C@@](O)(COC(=O)NC(=O)CCl)[C@H](C)C[C@@H]5C)C[C@@H]4C)O3)O2)C[C@H](O)[C@H]1C)[C@H](C)C(=O)O
> 256 µg/mL
CCCCCCCCCC(=O)OC[C@]1(O)O[C@H]([C@H]2C[C@H](C)[C@H]([C@]3(CO)CC[C@H]([C@]4(C)CC[C@]5(C[C@H](O)[C@@H](C)[C@@H]([C@@H](C)[C@@H](OC)[C@H](C)C(=O)O)O5)O4)O3)O2)[C@@H](C)C[C@H]1C
> 256 µg/mL

Qu. Consider the compound `CO[C@H]([C@H](C)[C@H]1O[C@@]2(CC[C@@](C)([C@H]3CC[C@@](CO)([C@@H]4O[C@@H]([C@H]5O[C@@](O)(COC(=O)NCc6ccccc6)[C@H](C)C[C@@H]5C)C[C@@H]4C)O3)O2)C[C@H](O)[C@H]1C)[C@H](C)C(=O)O` and give its measured MIC.
Ans. > 256 µg/mL

Qu. And for `CO[C@H]([C@H](C)[C@H]1O[C@@]2(CC[C@@](C)([C@H]3CC[C@@](CO)([C@@H]4O[C@@H]([C@H]5O[C@@](O)(COC(=O)NCCCl)[C@H](C)C[C@@H]5C)C[C@@H]4C)O3)O2)C[C@H](O)[C@H]1C)[C@H](C)C(=O)O` ?
Ans. > 256 µg/mL

Qu. Quick one: `CO[C@H]([C@H](C)[C@H]1O[C@@]2(CC[C@@](C)([C@H]3CC[C@@](CO)([C@@H]4O[C@@H]([C@H]5O[C@@](O)(COC(C)=O)[C@H](C)C[C@@H]5C)C[C@@H]4C)O3)O2)C[C@H](O)[C@H]1C)[C@H](C)C(=O)O`
Ans. > 256 µg/mL
